assay: self-splicing fitness, log relative to wild type (ln ratio); higher = more splicing; Tetrahymena group I intron in knt gene, E. coli kanamycin selection, DiMSum; sequences stand for … in CUCUCU…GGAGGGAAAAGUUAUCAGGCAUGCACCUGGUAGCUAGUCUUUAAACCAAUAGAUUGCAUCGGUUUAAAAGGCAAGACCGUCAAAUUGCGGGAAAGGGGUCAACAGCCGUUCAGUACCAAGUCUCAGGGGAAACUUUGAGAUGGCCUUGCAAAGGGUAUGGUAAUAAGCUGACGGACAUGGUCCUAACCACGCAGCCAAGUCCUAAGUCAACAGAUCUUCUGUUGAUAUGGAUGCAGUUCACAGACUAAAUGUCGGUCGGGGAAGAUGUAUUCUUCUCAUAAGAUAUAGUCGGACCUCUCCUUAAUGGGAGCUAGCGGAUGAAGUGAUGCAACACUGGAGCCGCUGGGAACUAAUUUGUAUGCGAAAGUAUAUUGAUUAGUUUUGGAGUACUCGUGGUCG; conditions: 30 °C;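 further: selection with 25 µg/mL kanamycin versus none on LB agar overnight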
Could you please report measured self-splicing fitness (ln) for the items listed next?
Could you respond with only the numeric value?

Query "UACCAGCAAUAUUACGGUAC" yields self-splicing fitness (ln) of -3.72

Query "UAUUAGCAAUAUUACGAGUC" yields self-splicing fitness (ln) of -3.35

Query "UUCAAGCAAUAUUACGUGUA" yields self-splicing fitness (ln) of -1.11

Query "GCCAAGCAAUAUUACGAUCC" yields self-splicing fitness (ln) of -1.01

Query "UUGGAGCAAUAUUACGUUGG" yields self-splicing fitness (ln) of -1.5

Query "CGAUAGCAAUAUUACGUUAU" yields self-splicing fitness (ln) of -3.93

Query "UGGUAGCAAUAUUACGGUGG" yields self-splicing fitness (ln) of -3.53

Query "UGCAAGCAAUAUUACGGGUC" yields self-splicing fitness (ln) of -3.11

Query "ACAUAGCAAUAUUACGAGUG" yields self-splicing fitness (ln) of -1.16

Query "CUUCAGCAAUAUUACGUUCC" yields self-splicing fitness (ln) of -2.64

Query "AUAUAGCAAUAUUACGAGAU" yields self-splicing fitness (ln) of -3.01

Query "UUGCAGCAAUAUUACGGUUA" yields self-splicing fitness (ln) of 0.353

Query "GCUAAGCAAUAUUACGAAUA" yields self-splicing fitness (ln) of -2.16

Query "CAGCAGCAAUAUUACGAACA" yields self-splicing fitness (ln) of -2.72

Query "UUGAAGCAAUAUUACGACAG" yields self-splicing fitness (ln) of 0.483

Query "GCUAAGCAAUAUUACGUCAA" yields self-splicing fitness (ln) of -1.5

Query "CUGAAGCAAUAUUACGCGCA" yields self-splicing fitness (ln) of -3.11

Query "AUAAAGCAAUAUUACGUUGG" yields self-splicing fitness (ln) of -2.08

Query "CACGAGCAAUAUUACGAGAC" yields self-splicing fitness (ln) of -2.99

Query "GCCAAGCAAUAUUACGUUGG" yields self-splicing fitness (ln) of -3.36

Query "GGACAGCAAUAUUACGAGAA" yields self-splicing fitness (ln) of -2.45

Query "ACGGAGCAAUAUUACGCAAG" yields self-splicing fitness (ln) of -3.14

Query "AGUCAGCAAUAUUACGCCCU" yields self-splicing fitness (ln) of -1.1

Query "CUUUAGCAAUAUUACGGACG" yields self-splicing fitness (ln) of -0.38

Query "CCCUAGCAAUAUUACGCCUU" yields self-splicing fitness (ln) of -3.23

Query "CGGAAGCAAUAUUACGCACC" yields self-splicing fitness (ln) of -2.4

Query "GUUCAGCAAUAUUACGGCGG" yields self-splicing fitness (ln) of -4.13

Query "GACAAGCAAUAUUACGGCAG" yields self-splicing fitness (ln) of -4.14

Query "UGUGAGCAAUAUUACGCUAA" yields self-splicing fitness (ln) of -2.39

Query "UAACAGCAAUAUUACGGUCC" yields self-splicing fitness (ln) of -2.94

Query "GAACAGCAAUAUUACGUGCC" yields self-splicing fitness (ln) of -2.58

Query "CCGCAGCAAUAUUACGCCGC" yields self-splicing fitness (ln) of -4.21

Query "UCCGAGCAAUAUUACGCAAC" yields self-splicing fitness (ln) of -2.57

Query "CUCGAGCAAUAUUACGUACU" yields self-splicing fitness (ln) of -2.68
